# measured-target: T1, cynomolgus CD3εδ-Fc heterodimer (Cy CD3ε Fc / CD3δ Fc-HIS) (cynomolgus, UniProt Q95LI8 22-100)
# T1 construct: range 22-100; Produced in HEK 293 cells; also called Cy CD3εδ Fc heterodimer; not shown: Fc-HIS part of CD3δ Fc-HIS
# T1 sequence (chain, as listed by the source mutant, form in doubt, chain 1 of 2): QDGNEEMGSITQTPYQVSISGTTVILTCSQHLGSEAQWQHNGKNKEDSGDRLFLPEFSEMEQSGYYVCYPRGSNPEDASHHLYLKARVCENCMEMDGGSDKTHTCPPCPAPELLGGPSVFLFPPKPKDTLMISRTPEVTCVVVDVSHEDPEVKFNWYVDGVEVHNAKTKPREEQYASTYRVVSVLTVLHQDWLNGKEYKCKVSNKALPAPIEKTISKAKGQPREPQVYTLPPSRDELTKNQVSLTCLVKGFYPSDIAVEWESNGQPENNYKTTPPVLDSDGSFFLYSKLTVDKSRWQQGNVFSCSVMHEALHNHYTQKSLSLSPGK
# T1 sequence (Q95LI8 22-100, stated change not applied, form in doubt, chain 2 of 2): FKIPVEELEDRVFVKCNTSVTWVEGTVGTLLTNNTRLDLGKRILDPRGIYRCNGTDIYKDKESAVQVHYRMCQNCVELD
# experiment-notes: BLI (Octet), yeast-produced IgG on AHC sensor, CD3εδ-Fc 100 nM in solution, pH 6.0
Quick rule for you: Kd under 7 nM gets Y, anything else gets N.

# binder, category
rows = [
    ("ADI-79843 (Antibody No. 8), human IgG1 (antibody, V domains shown, Tested as yeast-produced aglycosylated human IgG1) VH: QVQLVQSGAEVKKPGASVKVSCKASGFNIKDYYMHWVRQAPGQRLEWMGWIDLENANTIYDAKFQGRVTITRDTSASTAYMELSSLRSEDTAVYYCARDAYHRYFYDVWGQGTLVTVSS VL: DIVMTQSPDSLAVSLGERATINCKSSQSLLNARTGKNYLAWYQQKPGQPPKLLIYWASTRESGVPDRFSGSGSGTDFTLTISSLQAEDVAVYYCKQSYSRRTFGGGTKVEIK", "Y"),
    ("ADI-79846 (Antibody No. 12), human IgG1 (antibody, V domains shown, Tested as yeast-produced aglycosylated human IgG1) VH: QVQLVQSGAEVKKPGASVKVSCKASGFNIKDYYMHWVRQAPGQRLEWMGWIDLENANTIYDAKFQGRVTITRDTSASTAYMGLSSLRSEDTAVYYCARDHYGRYFYDVWGQGTLVTVSS VL: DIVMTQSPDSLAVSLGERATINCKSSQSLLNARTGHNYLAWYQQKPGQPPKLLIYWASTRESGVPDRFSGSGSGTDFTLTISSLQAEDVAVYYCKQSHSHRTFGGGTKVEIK", "N"),
    ("ADI-74968 (Antibody No. 6), human IgG1 (antibody, V domains shown, Tested as human IgG1 (yeast-produced aglycosylated, or CHO-produced)) VH: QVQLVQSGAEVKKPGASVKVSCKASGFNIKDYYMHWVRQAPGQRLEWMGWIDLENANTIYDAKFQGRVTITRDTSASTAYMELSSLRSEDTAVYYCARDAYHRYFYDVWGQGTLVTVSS VL: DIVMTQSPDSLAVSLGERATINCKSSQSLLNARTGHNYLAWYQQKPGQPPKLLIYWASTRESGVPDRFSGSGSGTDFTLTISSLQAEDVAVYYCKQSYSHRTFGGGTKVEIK", "Y"),
    ("ADI-74967 (Antibody No. 5), human IgG1 (antibody, V domains shown, Tested as human IgG1 (yeast-produced aglycosylated, or CHO-produced)) VH: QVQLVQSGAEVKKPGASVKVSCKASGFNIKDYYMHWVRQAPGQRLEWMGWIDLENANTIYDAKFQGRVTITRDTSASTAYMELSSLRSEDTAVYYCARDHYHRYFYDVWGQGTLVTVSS VL: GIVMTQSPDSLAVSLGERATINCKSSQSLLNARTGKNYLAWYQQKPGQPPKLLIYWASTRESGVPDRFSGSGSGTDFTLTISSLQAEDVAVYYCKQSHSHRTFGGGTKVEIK", "N"),
    ("ADI-74965 (Antibody No. 3), human IgG1 (antibody, V domains shown, Tested as human IgG1 (yeast-produced aglycosylated, or CHO-produced)) VH: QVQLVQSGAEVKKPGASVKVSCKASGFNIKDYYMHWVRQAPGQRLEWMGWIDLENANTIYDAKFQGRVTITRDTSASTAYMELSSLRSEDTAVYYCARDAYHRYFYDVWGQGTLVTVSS VL: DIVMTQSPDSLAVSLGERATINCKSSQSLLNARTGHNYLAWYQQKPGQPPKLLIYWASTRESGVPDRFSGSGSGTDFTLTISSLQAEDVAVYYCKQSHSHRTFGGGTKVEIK", "Y"),
    ("ADI-79848 (Antibody No. 9), human IgG1 (antibody, V domains shown, Tested as yeast-produced aglycosylated human IgG1) VH: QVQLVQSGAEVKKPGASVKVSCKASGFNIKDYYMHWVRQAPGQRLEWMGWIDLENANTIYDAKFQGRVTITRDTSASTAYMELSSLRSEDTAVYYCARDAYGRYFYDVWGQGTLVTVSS VL: DIVMTQSPDSLAVSLGERATINCKSSQSLLNARTGHNYLAWYQQKPGQPPKLLIYWASTRESGVPDRFSGSGSGTDFTLTISSLQAEDVAVYYCKQSYSRRTFGGGTKVEIK", "Y"),
    ("ADI-74966 (Antibody No. 4), human IgG1 (antibody, V domains shown, Tested as human IgG1 (yeast-produced aglycosylated, or CHO-produced)) VH: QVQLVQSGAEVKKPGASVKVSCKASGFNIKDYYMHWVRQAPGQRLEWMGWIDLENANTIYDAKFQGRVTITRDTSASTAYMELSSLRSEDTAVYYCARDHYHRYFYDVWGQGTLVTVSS VL: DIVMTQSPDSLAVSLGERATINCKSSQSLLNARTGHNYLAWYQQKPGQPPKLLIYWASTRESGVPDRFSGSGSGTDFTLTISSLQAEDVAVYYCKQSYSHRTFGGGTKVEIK", "N"),
    ("ADI-26906 (Antibody No. 1), human IgG1 (antibody, V domains shown, Non-pH-dependent parent; Tested as human IgG1 (yeast-produced aglycosylated, or CHO-produced); also called Ab No. 1) VH: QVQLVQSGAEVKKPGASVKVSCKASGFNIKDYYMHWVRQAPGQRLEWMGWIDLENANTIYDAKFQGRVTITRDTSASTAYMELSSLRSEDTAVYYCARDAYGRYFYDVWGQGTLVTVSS VL: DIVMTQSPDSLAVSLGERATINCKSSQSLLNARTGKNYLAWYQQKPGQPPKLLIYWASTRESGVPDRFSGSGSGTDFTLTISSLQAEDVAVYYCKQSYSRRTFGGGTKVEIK", "Y"),
    ("ADI-79844 (Antibody No. 10), human IgG1 (antibody, V domains shown, Tested as yeast-produced aglycosylated human IgG1) VH: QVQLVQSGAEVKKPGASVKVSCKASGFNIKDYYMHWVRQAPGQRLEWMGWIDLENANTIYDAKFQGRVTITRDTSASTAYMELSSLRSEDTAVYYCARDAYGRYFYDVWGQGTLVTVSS VL: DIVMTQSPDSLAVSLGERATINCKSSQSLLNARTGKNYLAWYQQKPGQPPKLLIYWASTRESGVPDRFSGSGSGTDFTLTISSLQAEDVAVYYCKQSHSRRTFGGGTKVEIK", "Y"),
]
